Target: αvβ6 (Homo sapiens, UniProt P06756+P18564)
Sequence (P06756 31-992 limits assumed): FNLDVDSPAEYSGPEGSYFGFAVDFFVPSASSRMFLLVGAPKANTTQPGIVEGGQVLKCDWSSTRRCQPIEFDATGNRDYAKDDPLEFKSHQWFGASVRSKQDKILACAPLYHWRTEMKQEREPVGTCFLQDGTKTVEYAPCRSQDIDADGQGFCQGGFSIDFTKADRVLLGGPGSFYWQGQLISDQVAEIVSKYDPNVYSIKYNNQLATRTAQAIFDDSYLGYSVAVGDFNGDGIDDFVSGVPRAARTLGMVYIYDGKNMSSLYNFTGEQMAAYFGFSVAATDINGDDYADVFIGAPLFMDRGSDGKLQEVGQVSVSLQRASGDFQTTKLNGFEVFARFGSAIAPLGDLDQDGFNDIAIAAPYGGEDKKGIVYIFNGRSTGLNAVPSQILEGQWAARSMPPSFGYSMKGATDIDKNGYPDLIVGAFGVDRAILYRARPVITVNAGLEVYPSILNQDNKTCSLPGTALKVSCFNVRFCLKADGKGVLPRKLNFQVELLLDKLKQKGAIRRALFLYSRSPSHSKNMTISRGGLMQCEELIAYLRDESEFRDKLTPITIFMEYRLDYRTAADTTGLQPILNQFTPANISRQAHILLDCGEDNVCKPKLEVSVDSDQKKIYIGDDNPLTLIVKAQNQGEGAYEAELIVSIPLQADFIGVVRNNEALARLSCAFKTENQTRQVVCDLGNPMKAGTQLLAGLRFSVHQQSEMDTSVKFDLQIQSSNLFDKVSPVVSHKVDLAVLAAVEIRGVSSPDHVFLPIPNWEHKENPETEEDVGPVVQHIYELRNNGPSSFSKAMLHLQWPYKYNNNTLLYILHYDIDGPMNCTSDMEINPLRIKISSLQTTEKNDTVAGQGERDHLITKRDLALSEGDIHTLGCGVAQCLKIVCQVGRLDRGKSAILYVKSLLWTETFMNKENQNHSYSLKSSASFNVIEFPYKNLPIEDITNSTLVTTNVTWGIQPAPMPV
Sequence (P18564 22-707 limits assumed): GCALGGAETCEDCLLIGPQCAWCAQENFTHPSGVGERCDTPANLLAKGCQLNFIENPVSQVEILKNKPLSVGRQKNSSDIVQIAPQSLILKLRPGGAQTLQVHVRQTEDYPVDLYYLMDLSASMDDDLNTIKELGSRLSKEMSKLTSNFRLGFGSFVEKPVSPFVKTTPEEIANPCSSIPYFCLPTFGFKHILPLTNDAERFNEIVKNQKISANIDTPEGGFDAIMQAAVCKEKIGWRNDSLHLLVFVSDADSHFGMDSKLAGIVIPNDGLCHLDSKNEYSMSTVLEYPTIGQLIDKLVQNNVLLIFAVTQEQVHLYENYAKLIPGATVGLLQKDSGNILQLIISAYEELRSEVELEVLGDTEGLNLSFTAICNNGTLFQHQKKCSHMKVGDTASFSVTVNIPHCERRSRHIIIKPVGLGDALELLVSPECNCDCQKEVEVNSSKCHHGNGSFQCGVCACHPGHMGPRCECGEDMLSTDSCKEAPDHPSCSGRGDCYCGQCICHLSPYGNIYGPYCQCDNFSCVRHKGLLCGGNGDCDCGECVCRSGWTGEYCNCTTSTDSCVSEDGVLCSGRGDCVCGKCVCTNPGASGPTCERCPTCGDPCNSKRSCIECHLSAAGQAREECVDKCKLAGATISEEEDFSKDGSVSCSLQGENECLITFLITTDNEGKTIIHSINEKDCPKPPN
Test: Solid Phase Integrin αvβ6 Assay
Listed compounds paired with reported IC50

Example entries and their recorded answers appear below.
O=C(O)[C@H](CO[C@@H]1CCCN(Cc2ccc3c(n2)NCCC3)C1)c1ccccc1 [Compound 396]: > 1 µM
O=C(NC[C@H](C(=O)O)c1cccc2cn([C@@H]3CCC(F)(F)C3)nc12)[C@@H]1CCCN(CCCc2ccc3c(n2)NCCC3)C1 [Compound 623]: < 0.1 µM
C[C@H]1CC[C@@H](C(=O)N[C@@H](CC(=O)O)c2ccccc2)CN1CCCc1ccc2c(n1)NCCC2 [Compound 554]: 0.1 to 1 µM

Attention now shifts to the item below.
-- ask What does the record list as IC50 for O=C(O)[C@H](CCO[C@@H]1CCCN(CCCc2ccc3c(n2)NCCC3)C1)c1cccc2nn(CC3CC3)cc12 [Compound 501] ?
-- reply 0.1 to 1 µM

====

IC50 overview
Molecular target: αvβ6 (Homo sapiens, UniProt P06756+P18564)
Test: Solid Phase Integrin αvβ6 Assay
Where a name gives a salt, the structure may show the parent alone.

Example entries and their recorded answers appear below.
CN(CC1(C)CCCCC1)[C@@H](CNC(=O)[C@@H]1CCCN(CCCc2ccc3c(n2)NCCC3)C1)C(=O)O [Compound 527]: 100 to 1000 nM
C[C@@H]1C[C@H](C(=O)NC[C@@H](C(=O)O)c2cccc(-c3ccccc3)c2)CN(CCCc2ccc3c(n2)NCCC3)C1 [Compound 642]: > 1000 nM
CN(C[C@@H]1CCCN(CCCc2ccc3c(n2)NCCC3)C1)[C@@H](CC(=O)O)c1cccc(C2CC2)c1 [Compound 530]: > 1000 nM
O=C(CC[C@H](C(=O)O)c1ccccc1)N[C@H]1CCN(CCCCc2ccc3c(n2)NCCC3)C1 [Compound 422]: > 1000 nM
O=C(O)[C@@H](CCO[C@@H]1CCCN(CCCc2ccc3c(n2)NCCC3)C1)c1ccc(C2CC2)cc1 [Compound 484]: > 1000 nM
CC1(C)CCN(c2cccc([C@@H](CNC(=O)[C@@H]3CCCN(CCCc4ccc5c(n4)NCCC5)C3)C(=O)O)c2)CC1 [Compound 601]: < 100 nM

Next item in the queue.
-- ask Look up IC50 with αvβ6 (Homo sapiens, UniProt P06756+P18564) for this compound: O=C(O)CC(NC(=O)[C@@H]1CCCN(CCCc2ccc3c(n2)NCCC3)C1)c1cnn(-c2ccccc2)c1 (stereo partly shown) [Compound 233, hydrochloride]
-- reply < 100 nM

====

Molecular target: αvβ1 (Homo sapiens, UniProt P05556+P06756)
Sequence (P06756 31-992 limits assumed): as the sequence (P06756 31-992 limits assumed) above
Sequence (P05556 21-728 limits assumed): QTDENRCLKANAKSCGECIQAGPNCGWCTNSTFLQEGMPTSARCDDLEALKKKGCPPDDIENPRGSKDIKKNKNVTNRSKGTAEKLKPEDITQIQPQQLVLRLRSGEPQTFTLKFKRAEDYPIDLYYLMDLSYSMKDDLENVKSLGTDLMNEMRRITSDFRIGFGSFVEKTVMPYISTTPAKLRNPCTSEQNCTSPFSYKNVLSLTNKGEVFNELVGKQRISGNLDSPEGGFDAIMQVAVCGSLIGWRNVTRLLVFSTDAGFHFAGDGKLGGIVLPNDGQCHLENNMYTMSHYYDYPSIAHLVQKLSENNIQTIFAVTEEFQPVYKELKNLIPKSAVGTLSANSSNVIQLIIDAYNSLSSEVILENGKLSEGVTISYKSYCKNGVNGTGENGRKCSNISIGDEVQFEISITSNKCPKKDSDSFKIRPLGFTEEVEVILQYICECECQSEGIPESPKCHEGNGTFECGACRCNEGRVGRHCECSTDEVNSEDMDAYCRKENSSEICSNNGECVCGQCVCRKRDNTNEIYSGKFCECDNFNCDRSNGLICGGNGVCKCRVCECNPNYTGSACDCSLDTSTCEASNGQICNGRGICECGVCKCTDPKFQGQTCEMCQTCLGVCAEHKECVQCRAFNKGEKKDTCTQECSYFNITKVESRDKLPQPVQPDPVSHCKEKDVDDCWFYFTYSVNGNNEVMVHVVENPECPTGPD
Assay: Solid Phase Integrin αvβ1 Assay
pIC50: −log10 of the molar value.
Here, each record is paired with measured pIC50 data.

Here's what some known entries look like.
O=C(NC[C@H](C(=O)O)c1cccc2cn([C@H]3CCC(F)(F)C3)nc12)[C@@H]1CCCN(CCCc2ccc3c(n2)NCCC3)C1 [Compound 619]: > 7.00
O=C(O)[C@@H](CO[C@@H]1CCCN(CCCc2ccc3c(n2)NCCC3)C1)c1ccccc1 [Compound 352]: < 6.00

-- ask # get_value(readout='pIC50', item= O=C(O)[C@H](CCO[C@H]1CCCN(CCCc2ccc3c(n2)NCCC3)C1)NC(=O)C12CCC(CC1)CC2 [Compound 447] )
-- reply > 7.00

-- ask Reported pIC50 for O=C(O)[C@@H](CCO[C@@H]1CCCN(CCCc2ccc3c(n2)NCCC3)C1)c1cccc2nn(CC3CC3)cc12 [Compound 487] : what is it?
-- reply > 7.00
